B1: HMOX1 (parent)
chain: YHIYVALEEEIERNKESPVFAPVY

Variants of: B1
Test: protein stability index of a GFP-peptide fusion (GPS, HEK-293T) (PSI 1-6); higher = more stable;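 further: lentivirally expressed fusions sorted by FACS into six bins by GFP to DsRed ratio, PSI derived from sequencing read proportions per bin multiplied by bin number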
Conditions: c terminus: a fixed tail appended
Quantity measured: protein stability index
Give bare numbers.

Y4M    1.36
K15L    2.22
I11W    2.18
P22R    2.06
E8D    1.53
Y24Q    3.09

// for each variant in input: emit protein stability index
1. P22Q
2. P18L
3. N14G
4. K15Y
5. E9D

Return:
[1.98, 1.53, 1.98, 2.13, 1.88]

// for each variant in input: emit protein stability index
1. E12L
2. L7W
3. S17G
4. F20M
5. I11L
6. P18E

Return:
1: 1.83; 2: 2.2; 3: 2.29; 4: 2.81; 5: 1.57; 6: 2.59

Measured values drawn from the supplement of paper PMC10567573 for this set.
